# System Name: T1, Human SIRPαV2 (CAA71403.1), Extracellular Domain + His-Tag (human, UniProt P78324 31-373)
# T1 construct: also called huSIRPαV2; hSIRPαV2; not shown: His-Tag
# T1 sequence (P78324 other isoform, or with tags, fused parts or gaps): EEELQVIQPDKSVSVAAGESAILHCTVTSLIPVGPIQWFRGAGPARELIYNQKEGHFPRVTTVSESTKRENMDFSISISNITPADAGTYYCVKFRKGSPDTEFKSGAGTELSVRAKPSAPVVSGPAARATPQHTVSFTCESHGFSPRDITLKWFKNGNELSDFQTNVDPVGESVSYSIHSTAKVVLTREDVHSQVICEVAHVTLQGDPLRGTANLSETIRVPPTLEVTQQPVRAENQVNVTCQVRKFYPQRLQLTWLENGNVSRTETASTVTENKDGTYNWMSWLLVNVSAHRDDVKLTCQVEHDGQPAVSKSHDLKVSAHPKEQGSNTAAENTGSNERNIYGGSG
# Procedure Text: SPR, antibody captured on Protein A/G, ECD-His analyte, 1:1 fit
Assay Endpoint: koff

1) Antibody E20 (antibody, human IgG1, kappa, L234A L235A, V domains shown) VH: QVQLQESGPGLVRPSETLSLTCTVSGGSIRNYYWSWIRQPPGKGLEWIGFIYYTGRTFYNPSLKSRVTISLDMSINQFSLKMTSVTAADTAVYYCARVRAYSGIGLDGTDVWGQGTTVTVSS VL: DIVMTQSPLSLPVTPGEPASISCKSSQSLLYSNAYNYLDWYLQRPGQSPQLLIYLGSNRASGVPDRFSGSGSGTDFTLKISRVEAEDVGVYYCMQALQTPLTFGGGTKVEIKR = 0.000627 s⁻¹
2) Antibody E16 (antibody, human IgG1, kappa, L234A L235A, V domains shown) VH: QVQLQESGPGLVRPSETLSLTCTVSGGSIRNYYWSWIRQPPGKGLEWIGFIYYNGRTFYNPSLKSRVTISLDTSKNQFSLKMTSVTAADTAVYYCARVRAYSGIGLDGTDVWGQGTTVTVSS VL: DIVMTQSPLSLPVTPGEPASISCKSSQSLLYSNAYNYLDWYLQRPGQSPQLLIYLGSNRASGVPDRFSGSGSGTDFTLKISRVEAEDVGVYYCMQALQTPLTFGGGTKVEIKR = 0.00105 s⁻¹
3) Antibody A13 (antibody, human IgG1, kappa, L234A L235A, V domains shown) VH: EVQLVESGGGLVQPGGSLRLSCAASGFTLSSYDMHWVRQAPGKGLEWVSAIGTAGDTYYTGSVKGRFTISRENAKNSLYLQMNSLRAADTAVYYCVRGGVWDDAFDIWGQGTMVTVSS VL: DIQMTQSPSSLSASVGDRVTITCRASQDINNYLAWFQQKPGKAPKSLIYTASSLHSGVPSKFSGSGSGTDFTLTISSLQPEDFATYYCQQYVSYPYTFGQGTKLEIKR = 0.00635 s⁻¹

Reference source for all entries: patent US20230012273A1
